Source of measurements: patent US20240083945A1

Molecular target: T1, COVID-19 nucleocapsid protein (N-protein) (severe acute respiratory syndrome …, UniProt P0DTC9 1-419)
T1 construct: also called nucleocapsid protein (N-protein) of severe acute respiratory syndrome coronavirus 2 (SARS-CoV-2)
Assay: bio-layer interferometry (BLI)
Entries and their pKd values follow.
The scale used: pKd is minus the common logarithm of the concentration in molar units.

The following binders have reported results that may help.
- binder: "ACSVGYCPLTNTFCA (Ci, Cii and Ciii cysteines covalently bound to TBMT scaffold) [BCY16572]"
  value reported: 5.78
- binder: "QYESCTTDFCNNRYVVNRCGSDN (Ci, Cii and Ciii cysteines covalently bound to TBMT scaffold) [BCY18979]"
  value reported: 6.96
- binder: "ACLPLGARCNWTRVCA (Ci, Cii and Ciii cysteines covalently bound to TATA scaffold) [BCY17646]"
  value reported: 6.70
- binder: "ACLPLGARCQWGRTCA (Ci, Cii and Ciii cysteines covalently bound to TATA scaffold) [BCY16576]"
  value reported: 6.23
- binder: "ACMHDVCVLTGVNIPCA (Ci, Cii and Ciii cysteines covalently bound to TATA scaffold) [BCY19563]"
  value reported: 5.82
- binder: "ACSVDVCAITGVHIPCA (Ci, Cii and Ciii cysteines covalently bound to TATA scaffold) [BCY19566]"
  value reported: 5.49

Okay, next one:
pKd reported for this binder ACENFQLGCRITYKCA (Ci, Cii and Ciii cysteines covalently bound to TATA scaffold) [BCY17643] : 5.37
